Numbers sourced from ChEMBL document CHEMBL1135390.

List of Emax values.
species on record: Cavia porcellus; experiment: Inotropic activity on electrically driven isolated Guinea pig left atria, (from basal force).; format: functional; settings: Cavia porcellus; read-out: Emax
Reply with a number, then the unit it belongs to.

CC1=C2CC[C@H](/C=N/N=C(N)N)[C@@]2(C)CC/C1=N\N=C(N)N | 108%
C[C@H]1O[C@@H](O[C@H]2[C@@H](O)C[C@H](O[C@H]3[C@@H](O)C[C@H](O[C@H]4CC[C@@]5(C)[C@H](CC[C@@H]6[C@@H]5C[C@@H](O)[C@]5(C)[C@@H](C7=CC(=O)OC7)CC[C@]65O)C4)O[C@@H]3C)O[C@@H]2C)C[C@H](O)[C@@H]1O [DIGOXIN] | 103%
C[C@]12CC/C(=N\N=C(N)N)C=C1CC[C@@H]2/C=C/[N+](=O)[O-] | 128%
C[C@]12CC[C@H]3[C@@H](CC[C@]4(O)C[C@@H](O)CC[C@]34C=O)[C@@]1(O)CC[C@@H]2C1=CC(=O)OC1 [STROPHANTHIDIN] | 122%
C[C@]12CC/C(=N\N=C(N)N)C=C1CC[C@@H]2CO | -47%

Quick one: Emax of C[C@]12CC/C(=N\N=C(N)N)C=C1CC[C@@H]2CN ?
46%

Now this one: C[C@]12CC/C(=N\N=C(N)N)C[C@@]1(O)CC[C@@H]2/C=N/N=C(N)N
-59%

* * *

organism: Cavia porcellus; assay: Inotropic activity on electrically driven isolated Guinea pig left atria, (from basal force).; type: functional; conditions: Cavia porcellus; read-out: Emax
List of Emax values.
Provide the reading as a plain figure in %.

Example results:
COC(=O)/C=C/[C@H]1CCC2=C(C)/C(=N/N=C(N)N)CC[C@@]21C | -41
CC1=C2CC[C@@H](/C=N/N=C(N)N)[C@@]2(C)CC/C1=N\N=C(N)N | 129
COC(=O)/C=C/[C@H]1CCC2=C/C(=N/N=C(N)N)CC[C@@]21C | -67
COC(=O)/C=C\[C@H]1CCC2=C/C(=N/N=C(N)N)CC[C@@]21C | -76

Please turn your attention to the following entry.
Quick one: Emax of C[C@]12CC/C(=N\N=C(N)N)C=C1CC[C@@H]2CN1C(=O)c2ccccc2C1=O ?
86
